tested on: Neutrophil elastase (Homo sapiens)
Sequence (P08246 whole entry): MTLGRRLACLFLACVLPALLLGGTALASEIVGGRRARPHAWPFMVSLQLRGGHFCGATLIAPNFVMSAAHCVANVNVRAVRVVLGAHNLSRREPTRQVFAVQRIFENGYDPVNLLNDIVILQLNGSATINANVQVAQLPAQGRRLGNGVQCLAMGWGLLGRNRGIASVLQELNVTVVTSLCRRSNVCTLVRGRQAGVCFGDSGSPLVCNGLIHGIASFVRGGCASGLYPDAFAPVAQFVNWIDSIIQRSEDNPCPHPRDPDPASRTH
assay comment: Inhibition of human leukocyte elastase
pKi: −log10 of the molar value.
Hi, to clarify the labels: Yes covers pKi from 8 upward, No covers anything below 8.

                                 cpd_smiles  category_label
0  CC(C)C[C@H](NC(=O)[C@@H]1CCCN1c1nc2ccccc2c(=O)o1)C(=O)NCC(N)=O              No
1                CCCCNc1nc2c(C)cccc2c(=O)o1              No

stdin: For this compound, is measured pKi 8 or higher? CCSc1nc2c(C)cccc2c(=O)o1
stdout: No

stdin: For this compound, is measured pKi 8 or higher? Cc1cccc2c(=O)oc(SCc3ccccc3)nc12
stdout: No

stdin: For this compound, is measured pKi 8 or higher? CC(=O)N(C)c1nc2ccccc2c(=O)o1
stdout: Yes

stdin: For this compound, is measured pKi 8 or higher? Cc1nc2c(N)cccc2c(=O)o1
stdout: No

stdin: For this compound, is measured pKi 8 or higher? CCCc1cccc2nc(OCC)oc(=O)c12
stdout: Yes

stdin: For this compound, is measured pKi 8 or higher? CSc1nc2cccc(C)c2c(=O)o1
stdout: Yes

stdin: For this compound, is measured pKi 8 or higher? CC(C)Cc1nc2ccccc2c(=O)o1
stdout: No

stdin: For this compound, is measured pKi 8 or higher? CCCCNc1nc2cc(N)ccc2c(=O)o1
stdout: No

stdin: For this compound, is measured pKi 8 or higher? O=c1oc(N2CCOCC2)nc2ccccc12
stdout: No

stdin: For this compound, is measured pKi 8 or higher? CC(C)COC(=O)N(C)c1nc2ccccc2c(=O)o1
stdout: Yes

stdin: For this compound, is measured pKi 8 or higher? O=c1oc(-c2ccccc2)nc2ccccc12
stdout: No

stdin: For this compound, is measured pKi 8 or higher? CC(C)NC(=O)[C@H](CCC(N)=O)Nc1nc2ccccc2c(=O)o1
stdout: No

stdin: For this compound, is measured pKi 8 or higher? CCSc1nc2cccc(C)c2c(=O)o1
stdout: Yes

stdin: For this compound, is measured pKi 8 or higher? Cc1cc(N(C)C)cc2nc(NC(C)C)oc(=O)c12
stdout: No

stdin: For this compound, is measured pKi 8 or higher? COc1cc2nc(SCc3c[nH]cn3)oc(=O)c2cc1OC
stdout: No

stdin: For this compound, is measured pKi 8 or higher? CCOC(=O)CCCNc1nc2ccccc2c(=O)o1
stdout: No
